Origin of values: patent US20040197818A1

- target-under-test: HERG (human, UniProt Q12809 1-1159)
- Sequence (Q12809 whole entry): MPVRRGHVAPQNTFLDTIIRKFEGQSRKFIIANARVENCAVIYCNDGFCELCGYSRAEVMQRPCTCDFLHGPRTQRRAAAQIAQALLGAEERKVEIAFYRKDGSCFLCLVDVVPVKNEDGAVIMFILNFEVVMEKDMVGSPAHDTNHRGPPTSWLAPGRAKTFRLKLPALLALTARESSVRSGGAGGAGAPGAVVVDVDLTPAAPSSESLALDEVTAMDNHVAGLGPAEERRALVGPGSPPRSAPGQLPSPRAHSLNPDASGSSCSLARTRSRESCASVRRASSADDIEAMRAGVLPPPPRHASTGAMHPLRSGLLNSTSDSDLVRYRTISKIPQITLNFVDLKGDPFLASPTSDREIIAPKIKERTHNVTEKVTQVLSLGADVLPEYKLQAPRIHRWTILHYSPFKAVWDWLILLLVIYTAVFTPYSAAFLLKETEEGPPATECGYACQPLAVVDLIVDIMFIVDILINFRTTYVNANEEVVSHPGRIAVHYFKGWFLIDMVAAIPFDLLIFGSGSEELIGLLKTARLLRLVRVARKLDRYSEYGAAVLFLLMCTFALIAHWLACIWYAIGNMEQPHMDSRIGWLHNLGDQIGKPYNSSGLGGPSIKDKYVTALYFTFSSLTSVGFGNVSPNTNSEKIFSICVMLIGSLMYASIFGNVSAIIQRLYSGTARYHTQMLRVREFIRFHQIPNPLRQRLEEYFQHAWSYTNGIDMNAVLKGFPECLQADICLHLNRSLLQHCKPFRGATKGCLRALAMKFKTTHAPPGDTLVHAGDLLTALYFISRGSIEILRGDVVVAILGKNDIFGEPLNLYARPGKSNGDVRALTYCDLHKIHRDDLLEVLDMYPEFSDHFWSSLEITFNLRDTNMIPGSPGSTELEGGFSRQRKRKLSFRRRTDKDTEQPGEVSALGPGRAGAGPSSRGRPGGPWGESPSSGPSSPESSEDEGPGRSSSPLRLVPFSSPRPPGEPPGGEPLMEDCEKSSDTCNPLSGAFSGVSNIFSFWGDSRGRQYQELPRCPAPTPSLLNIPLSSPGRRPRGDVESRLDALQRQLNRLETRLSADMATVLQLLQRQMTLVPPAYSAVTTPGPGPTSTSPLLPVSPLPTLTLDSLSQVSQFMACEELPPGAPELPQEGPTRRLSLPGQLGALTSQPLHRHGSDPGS
- assay-info: cell-based or functional assay
observable: deactivation slow time constant
Please reply with the number alone, leaving off any unit.

Take a look at these entries with their results.
binder	observable	numeric-value
Q9E-hMiRP1 (other) MSTLSNFTETLEDVFRRIFITYMDNWRQNTTAEQEALQAKVDAENFYYVILYLMVMIGMFSFIIVAILVSTVKSKRREHSNDPYHQYIVEDWQEKYKSQILNLEESKATIHENIGAAGFKMSP	deactivation slow time constant	750
M54T-hMiRP1 (other) MSTLSNFTQTLEDVFRRIFITYMDNWRQNTTAEQEALQAKVDAENFYYVILYLTVMIGMFSFIIVAILVSTVKSKRREHSNDPYHQYIVEDWQEKYKSQILNLEESKATIHENIGAAGFKMSP	deactivation slow time constant	266
wild type human MiRP1 (other) MSTLSNFTQTLEDVFRRIFITYMDNWRQNTTAEQEALQAKVDAENFYYVILYLMVMIGMFSFIIVAILVSTVKSKRREHSNDPYHQYIVEDWQEKYKSQILNLEESKATIHENIGAAGFKMSP	deactivation slow time constant	483

Moving on to the next binder.
Provide measured deactivation slow time constant value, entry: T8A-hMiRP1 (other) MSTLSNFAQTLEDVFRRIFITYMDNWRQNTTAEQEALQAKVDAENFYYVILYLMVMIGMFSFIIVAILVSTVKSKRREHSNDPYHQYIVEDWQEKYKSQILNLEESKATIHENIGAAGFKMSP
590
